B1: ANKRD40 (parent)
chain: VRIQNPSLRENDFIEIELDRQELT

Variants of: B1
test-name: protein stability index of a GFP-peptide fusion (GPS, HEK-293T) (PSI 1-6); higher = more stable;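 also: lentivirally expressed fusions sorted by FACS into six bins by GFP to DsRed ratio, PSI derived from sequencing read proportions per bin multiplied by bin number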
condition-details: c terminus: a fixed tail appended
# protein stability index per entry
Reply: number alone, nothing else.

Solved cases (10 shown):
INSERT INTO measurements (variant_designation, number) VALUES
  ('S7P', 3.72),
  ('L23T', 3.52),
  ('E15F', 1.82),
  ('Q4A', 2.16),
  ('T24V', 2.2),
  ('N11Y', 1.71),
  ('I3E', 4.63),
  ('V1N', 4.46),
  ('L8D', 2.76),
  ('T24P', 2.49);

Kindly review the next variant as well.
Given the entry S7H , report its measured protein stability index.
2.13
